system: PfCRT^Ecu1110 (Plasmodium falciparum, UniProt Q9N623, A220S/I356L/K76T/N326D)
Sequence (Q9N623 whole entry A220S/I356L/K76T/N326D): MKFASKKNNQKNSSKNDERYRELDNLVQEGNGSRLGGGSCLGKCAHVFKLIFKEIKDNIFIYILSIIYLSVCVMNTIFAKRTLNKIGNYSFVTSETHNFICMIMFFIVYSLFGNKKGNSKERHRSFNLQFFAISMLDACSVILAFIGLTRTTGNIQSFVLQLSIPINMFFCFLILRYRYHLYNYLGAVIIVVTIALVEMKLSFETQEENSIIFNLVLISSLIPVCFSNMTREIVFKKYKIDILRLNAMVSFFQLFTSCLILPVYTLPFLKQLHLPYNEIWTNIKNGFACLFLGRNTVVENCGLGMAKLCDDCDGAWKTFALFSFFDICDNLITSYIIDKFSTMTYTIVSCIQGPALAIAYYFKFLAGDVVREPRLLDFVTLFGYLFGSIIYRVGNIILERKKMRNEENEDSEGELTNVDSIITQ
assay-remarks: cell-based
Assay type: cell-based
assay-conditions: [test solute]i = 5 mM (intracellular); PfCRTEcu1110 oocytes; normalised to oocyte type control
outcome-measure: PfCRT-mediated [3H]CQ transport, trans-stimulation (% PfCRTEcu1110 control)

{"substance": "EFTPPVQA [EA-8]", "system": "PfCRT^Ecu1110 (Plasmodium falciparum, UniProt Q9N623, A220S/I356L/K76T/N326D)", "experimental-value": 127}
{"substance": "DMPNALS [DS-7, host-derived peptide upstream of PL-4]", "system": "PfCRT^Ecu1110 (Plasmodium falciparum, UniProt Q9N623, A220S/I356L/K76T/N326D)", "experimental-value": 128}
{"substance": "HVDDMP [HP-6]", "system": "PfCRT^Ecu1110 (Plasmodium falciparum, UniProt Q9N623, A220S/I356L/K76T/N326D)", "experimental-value": 122}
